Reference source: the supplement of paper PMC13380429

Tested on: Vero E6 infected with SARS-CoV-2
protocolDetails: inhibition of SARS-CoV-2 cytopathic effect; higher = more antiviral protection, active = above 15
experimentalConditions: 1 nM; 48 h
# inhibition of SARS-CoV-2 cytopathic effect annotations
endpointName: inhibition of SARS-CoV-2 cytopathic effect (%)

- compound: "CC=CC1=C(C(=O)O)N2C(=O)[C@@H](NC(=O)[C@H](N)c3ccc(O)cc3)[C@H]2SC1 (mixture of isomers)"
  resultValue: -0.42
- compound: "CC(C)C[C@@H](N)C(=O)N[C@H]1C(=O)N[C@@H](CC(N)=O)C(=O)N[C@H]2C(=O)N[C@H]3C(=O)N[C@H](C(=O)N[C@H](C(=O)O)c4cc(O)cc(O)c4-c4cc3ccc4O)[C@H](O)c3ccc(c(Cl)c3)Oc3cc2cc(c3O[C@@H]2O[C@H](CO)[C@@H](O)[C@H](O)[C@H]2O[C@H]2C[C@](C)(N)[C@H](O)[C@H](C)O2)Oc2ccc(cc2Cl)[C@H]1O"
  resultValue: -0.51
- compound: "CNC(=O)c1c(C)oc2cc(Oc3ncnc4cc(OC)c(OC)cc34)ccc12"
  resultValue: 2.39
- compound: "O=c1[nH]c2ccccc2n1C1CCN(CCCC(c2ccc(F)cc2)c2ccc(F)cc2)CC1 [pimozide]"
  resultValue: 0.44
- compound: "COc1cccc([C@@H](C)NCCCc2ccccc2Cl)c1"
  resultValue: 1.64
- compound: "CC(=O)C1=C(O)[C@@H]2[C@H]3c4c[nH]c5cccc(c45)C[C@H]3C(C)(C)N2C1=O"
  resultValue: 0.48
- compound: "Cc1noc(NS(=O)(=O)c2cccc3c(N(C)C)cccc23)c1C"
  resultValue: 0.18
- compound: "CCCN1CCO[C@@H]2c3cc(O)ccc3OC[C@H]21"
  resultValue: -1.91

---

Tested on: Vero E6 infected with SARS-CoV-2
protocolDetails: inhibition of SARS-CoV-2 cytopathic effect; higher = more antiviral protection, active = above 15
experimentalConditions: 10000 nM; 48 h
Labels: active, inactive

- smilesData: "O=S(=O)(NCC1CC1)c1ccc(Nc2nccc(N3CCCc4cc(O)ccc43)n2)cc1"
  className: "active"
- smilesData: "Cn1cc(C[C@@H](N)C(=O)O)c2ccccc21"
  className: "inactive"
- smilesData: "Nc1nc(=O)n([C@H]2C[C@H](O)[C@@H](CO)O2)cc1Cl"
  className: "inactive"
- smilesData: "CC(=O)SC[C@@H](C)C(=O)N1CCC[C@H]1C(=O)N[C@@H](Cc1ccccc1)C(=O)O"
  className: "inactive"
- smilesData: "Cc1cc(C2CCCCC2)n(O)c(=O)c1"
  className: "inactive"

---

Tested on: Vero E6 infected with SARS-CoV-2
protocolDetails: morphology score (similarity to uninfected cells); higher = more like uninfected cells
experimentalConditions: 24 h
# morphology score annotations

- molecule: "CC(C)(C)NCC(O)COc1cccc2c1CCC(=O)N2 (configuration not stated) [carteolol] (10 µM)"
  morphology score: 0.111
- molecule: "CC(C)(C)OC(=O)N[C@H]1CCCCC/C=C\\[C@@H]2C[C@@]2(C(=O)NS(=O)(=O)C2CC2)NC(=O)[C@@H]2C[C@@H](OC(=O)N3Cc4cccc(F)c4C3)CN2C1=O [danoprevir] (10 µM)"
  morphology score: -0.0154
- molecule: "CC(O)COC[C@H]1O[C@@H]2O[C@H]3[C@H](O)[C@@H](O)[C@@H](O[C@H]4[C@H](O)[C@@H](O)[C@@H](O[C@H]5[C@H](O)[C@@H](O)[C@@H](O[C@H]6[C@H](O)[C@@H](O)[C@@H](O[C@H]7[C@H](O)[C@@H](O)[C@@H](O[C@H]8[C@H](O)[C@@H](O)[C@@H](O[C@H]1[C@H](O)[C@H]2O)O[C@@H]8COCC(C)O)O[C@@H]7COCC(C)O)O[C@@H]6COCC(C)O)O[C@@H]5COCC(C)O)O[C@@H]4COCC(C)O)O[C@@H]3COCC(C)O (stereo partly drawn) [hydroxypropyl-beta-cyclodextrin] (10 µM)"
  morphology score: 0.254
- molecule: "N[C@H]1C(O)O[C@H](CO)[C@@H](O)[C@@H]1O (mixture of isomers) [glucosamine] (10 µM)"
  morphology score: -0.0432
- molecule: "Cc1cc(C)cc(OCC2CNC(=O)O2)c1 (configuration not stated) [metaxalone] (10 µM)"
  morphology score: 0.134
- molecule: "FC(F)(F)c1cccc(-c2noc(-c3cc(-c4ccccc4)c(C(F)(F)F)s3)n2)c1 (10 µM)"
  morphology score: -0.0447
- molecule: "CC[C@H]1OC(=O)[C@H](C)C(=O)[C@H](C)[C@@H](O[C@@H]2O[C@H](C)C[C@H](N(C)C)[C@H]2O)[C@](C)(OC)C[C@@H](C)C(=O)[C@H](C)[C@H]2N(CCCCn3cnc(-c4cccnc4)c3)C(=O)O[C@]12C [telithromycin] (10 µM)"
  morphology score: 0.0131
- molecule: "O=C(O)Cc1ccccc1Nc1c(Cl)cccc1Cl [diclofenac] (10 µM)"
  morphology score: -0.00811
- molecule: "Fc1ccc(Cl)cc1-c1nc(Nc2ccncc2)c2nccnc2n1 (10 µM)"
  morphology score: 0.0882
- molecule: "Cc1ccc(C(=O)c2cc(O)c(O)c([N+](=O)[O-])c2)cc1 [tolcapone] (10 µM)"
  morphology score: 0.192
- molecule: "Cc1ccc([N+](=O)[O-])cc1S(=O)(=O)N(C)C (10 µM)"
  morphology score: 0.0445
- molecule: "CC(C)[C@H](O)C(=O)N[C@@H](C)C(=O)N[C@@H]1C(=O)N(C)CCc2ccccc21 [semagacestat] (10 µM)"
  morphology score: 0.0376
- molecule: "N=C(N)c1ccc(N2CCN(C3CCN(CC(=O)O)CC3)CC2)cc1 (10 µM)"
  morphology score: -0.0825
- molecule: "CCc1cccc(N(C)C(=N)Nc2cccc3ccccc23)c1 [aptiganel] (10 µM)"
  morphology score: 0.0916
- molecule: "CCN(CC)CCOC(=O)C(Cc1cccc2ccccc12)CC1CCCO1 (mixture of isomers) [naftidrofuryl] (10 µM)"
  morphology score: 0.14
- molecule: "CN1CCN(Cc2ccc(Nc3ncc(Cl)c(Nc4ccccc4S(=O)(=O)N(C)C)n3)cc2)CC1 (10 µM)"
  morphology score: -0.145
- molecule: "N=C(N)NCCC[C@@H](N)C(=O)N[C@@H](CCCNC(=N)N)C(=O)N1CCC[C@H]1C(=O)N1C[C@H](O)C[C@H]1C(=O)NCC(=O)N[C@@H](Cc1cccs1)C(=O)N[C@@H](CO)C(=O)N1Cc2ccccc2C[C@@H]1C(=O)N1[C@H](C(=O)N[C@@H](CCCNC(=N)N)C(=O)O)C[C@@H]2CCCC[C@@H]21 [icatibant-acetate] (10 µM)"
  morphology score: 0.105
- molecule: "COC(=O)N[C@H](C(=O)N1CC2(CC2)C[C@H]1c1nc(-c2ccc3c(c2)C(F)(F)c2cc(-c4ccc5[nH]c([C@@H]6[C@H]7CC[C@H](C7)N6C(=O)[C@@H](NC(=O)OC)C(C)C)nc5c4)ccc2-3)c[nH]1)C(C)C [ledipasvir] (10 µM)"
  morphology score: 0.191
- molecule: "O=C(O)c1c(Cl)c(Cl)c(Cl)c(Cl)c1-c1c2cc(I)c(=O)c(I)c-2oc2c(I)c(O)c(I)cc12 [rose-bengal] (0.833333 µM)"
  morphology score: 0.318
- molecule: "O=C(CN1CCN(C(=O)c2ccco2)CC1)Nc1cc(C(F)(F)F)ccc1Cl (10 µM)"
  morphology score: 0.00654
- molecule: "Cc1cc(C(=O)Nc2nc3cccc(Cl)c3n2[C@@H]2CCCCN(C(=O)/C=C/CN(C)C)C2)ccn1 (0.833333 µM)"
  morphology score: -0.2
- molecule: "CNCCC=C1c2ccccc2CCc2ccccc21 [nortriptyline] (0.833333 µM)"
  morphology score: -0.1
